target: recombinant human DPP9 (rhDPP9) (Homo sapiens, UniProt Q86TI2); construct: purchased R&S system / R&D systems (both sic) 5419-SE; experiment: DPP9 inhibition assay, 10 ng rhDPP9, Tris-HCl/BSA buffer; assay type: biochemical; conditions: Table 3B
Sequence (Q86TI2 whole entry): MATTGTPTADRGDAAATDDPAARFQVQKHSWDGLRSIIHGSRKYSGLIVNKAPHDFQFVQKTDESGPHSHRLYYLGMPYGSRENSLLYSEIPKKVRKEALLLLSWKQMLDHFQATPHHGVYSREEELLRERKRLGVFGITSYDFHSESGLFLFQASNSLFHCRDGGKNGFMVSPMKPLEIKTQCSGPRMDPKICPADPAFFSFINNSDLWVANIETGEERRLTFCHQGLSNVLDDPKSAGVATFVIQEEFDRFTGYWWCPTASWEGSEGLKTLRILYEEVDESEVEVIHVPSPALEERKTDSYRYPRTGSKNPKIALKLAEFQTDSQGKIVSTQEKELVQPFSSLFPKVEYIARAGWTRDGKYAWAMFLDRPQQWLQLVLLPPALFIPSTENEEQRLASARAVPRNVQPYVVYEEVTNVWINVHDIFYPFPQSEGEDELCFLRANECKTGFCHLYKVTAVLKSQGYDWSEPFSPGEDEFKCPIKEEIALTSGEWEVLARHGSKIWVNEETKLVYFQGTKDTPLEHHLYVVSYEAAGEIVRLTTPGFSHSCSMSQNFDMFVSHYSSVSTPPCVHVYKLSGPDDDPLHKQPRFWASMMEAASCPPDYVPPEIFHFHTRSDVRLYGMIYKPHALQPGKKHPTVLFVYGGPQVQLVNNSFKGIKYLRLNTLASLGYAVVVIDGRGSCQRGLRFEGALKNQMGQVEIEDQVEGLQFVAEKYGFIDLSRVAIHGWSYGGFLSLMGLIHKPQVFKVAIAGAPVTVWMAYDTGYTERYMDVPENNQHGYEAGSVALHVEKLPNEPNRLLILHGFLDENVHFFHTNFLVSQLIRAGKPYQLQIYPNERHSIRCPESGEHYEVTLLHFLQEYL
measured_attribute: IC50

Use the examples below as a reference point.
C/C(=C\c1cnccc1C(=O)NCC(=O)N1CC(F)(F)C[C@H]1C#N)c1ccc(C(F)(F)F)cc1
1000 to 10000 nM
N#C[C@@H]1CC(F)(F)CN1C(=O)CNC(=O)c1ccncc1/C=C/c1ccc(Cl)cc1
< 1000 nM
N#C[C@@H]1CC(F)(F)CN1C(=O)CNC(=O)c1ccncc1NC(=O)COc1ccc(Cl)c(F)c1
1000 to 10000 nM
N#C[C@@H]1CC(F)(F)CN1C(=O)CNC(=O)c1ccncc1Cc1ccc(F)cc1
1000 to 10000 nM

What IC50 value was documented for this molecule, N#C[C@@H]1CC(F)(F)CN1C(=O)CNC(=O)c1ccncc1NC(=O)Cc1ccccc1 ?
1000 to 10000 nM

Which IC50 is reported for this molecule? N#C[C@@H]1CC(F)(F)CN1C(=O)CNC(=O)c1ccnc2ccc(/C=C/c3ccc(C(F)(F)F)cc3)cc12
< 1000 nM

Requested read-out: IC50. Entry: C/C(=C\c1cnccc1C(=O)NCC(=O)N1CC(F)(F)C[C@H]1C#N)c1ccc(OC(F)(F)F)cc1
1000 to 10000 nM

====

Listing of recorded IC50 by entry.
target: recombinant human PREP (rhPREP) (Homo sapiens); test: PREP enzymatic activity assay, Z-Gly-Pro-AMC; type: biochemical; conditions: Table 3A
Sequence (P48147 whole entry): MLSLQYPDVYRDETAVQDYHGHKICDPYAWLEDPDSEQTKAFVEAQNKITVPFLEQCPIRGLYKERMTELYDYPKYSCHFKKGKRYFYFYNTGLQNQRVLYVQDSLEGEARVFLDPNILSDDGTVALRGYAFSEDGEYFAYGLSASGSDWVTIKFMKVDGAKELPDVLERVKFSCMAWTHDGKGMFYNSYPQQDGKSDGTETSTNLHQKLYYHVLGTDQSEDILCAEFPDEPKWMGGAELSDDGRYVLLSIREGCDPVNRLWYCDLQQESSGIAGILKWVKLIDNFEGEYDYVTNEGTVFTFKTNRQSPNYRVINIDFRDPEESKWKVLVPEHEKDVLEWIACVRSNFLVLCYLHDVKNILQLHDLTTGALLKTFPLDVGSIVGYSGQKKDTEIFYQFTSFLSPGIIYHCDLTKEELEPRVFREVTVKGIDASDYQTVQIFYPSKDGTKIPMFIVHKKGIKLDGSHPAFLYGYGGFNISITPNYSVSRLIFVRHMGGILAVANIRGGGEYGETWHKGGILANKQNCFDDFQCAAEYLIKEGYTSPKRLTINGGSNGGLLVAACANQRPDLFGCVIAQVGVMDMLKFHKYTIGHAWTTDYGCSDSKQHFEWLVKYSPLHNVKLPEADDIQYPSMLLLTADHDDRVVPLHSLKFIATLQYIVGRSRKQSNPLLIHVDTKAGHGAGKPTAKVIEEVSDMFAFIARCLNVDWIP

N#C[C@@H]1CC(F)(F)CN1C(=O)CNC(=O)c1ccncc1NC(=O)Cc1ccccc1
> 10 µM
N#C[C@@H]1CC(F)(F)CN1C(=O)CNC(=O)c1ccncc1/C=C/c1ccc(Cl)cc1
> 10 µM
N#C[C@@H]1CC(F)(F)CN1C(=O)CNC(=O)c1ccncc1/C=C/c1ccc(F)cc1
> 10 µM
N#C[C@@H]1CC(F)(F)CN1C(=O)CNC(=O)c1ccncc1CCc1ccc(Cl)cc1
1 to 10 µM

# returns recorded IC50 (system: recombinant human PREP (rhPREP) (Homo sapiens)) for N#C[C@@H]1CC(F)(F)CN1C(=O)CNC(=O)c1ccncc1Cc1ccccc1F
1 to 10 µM

Request - read-out IC50 | tested on recombinant human PREP (rhPREP) (Homo sapiens) | compound N#C[C@@H]1CC(F)(F)CN1C(=O)CNC(=O)c1ccncc1CCc1ccc(F)cc1
1 to 10 µM

Could you share what IC50 was measured for COc1ccc(C(=O)Nc2cnccc2C(=O)NCC(=O)N2CC(F)(F)C[C@H]2C#N)cc1 , tested on recombinant human PREP (rhPREP) (Homo sapiens)?
> 10 µM

Lab note: need IC50 for N#C[C@@H]1CC(F)(F)CN1C(=O)CNC(=O)c1ccncc1NCc1ccc(F)cc1 on recombinant human PREP (rhPREP) (Homo sapiens), anyone have it?
> 10 µM

====

biological target: recombinant human FAPα (rhFAPα) (Homo sapiens); construct: purchased R&S system (so in the source); experiment: FAPα enzymatic exopeptidase (dipeptidase) activity assay, Z-Gly-Pro-AMC; assay type: biochemical; details: exopeptidase inhibition at 1 μM test compound; Table 3B; read-out: rhFAPα % exo inh @ 1 μM
Sequence (Q12884 whole entry): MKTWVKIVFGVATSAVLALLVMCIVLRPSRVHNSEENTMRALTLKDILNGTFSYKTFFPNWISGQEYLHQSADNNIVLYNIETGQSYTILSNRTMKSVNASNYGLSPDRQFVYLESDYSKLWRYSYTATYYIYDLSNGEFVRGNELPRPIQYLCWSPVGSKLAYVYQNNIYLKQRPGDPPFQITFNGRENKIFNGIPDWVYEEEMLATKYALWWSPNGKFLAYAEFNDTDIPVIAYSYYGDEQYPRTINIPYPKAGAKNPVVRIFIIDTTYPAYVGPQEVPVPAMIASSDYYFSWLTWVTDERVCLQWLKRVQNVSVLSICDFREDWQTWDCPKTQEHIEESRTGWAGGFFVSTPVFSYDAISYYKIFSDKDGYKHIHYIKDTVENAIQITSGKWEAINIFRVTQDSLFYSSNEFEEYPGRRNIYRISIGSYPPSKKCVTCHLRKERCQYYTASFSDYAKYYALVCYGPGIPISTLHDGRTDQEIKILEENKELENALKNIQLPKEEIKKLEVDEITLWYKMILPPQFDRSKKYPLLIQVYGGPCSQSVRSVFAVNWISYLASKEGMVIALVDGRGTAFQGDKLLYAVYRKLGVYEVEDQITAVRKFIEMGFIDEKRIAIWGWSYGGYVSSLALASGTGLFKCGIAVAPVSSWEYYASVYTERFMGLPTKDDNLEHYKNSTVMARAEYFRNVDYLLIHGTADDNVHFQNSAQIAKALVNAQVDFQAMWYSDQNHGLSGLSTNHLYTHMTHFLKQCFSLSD
Recorded measurements of inhibition at 1 µM, one per entry

// lookup inhibition at 1 µM for CC(Nc1cnccc1C(=O)NCC(=O)N1CC(F)(F)C[C@H]1C#N)c1ccc(F)cc1 (stereo partly drawn) [Compound 4]
> 50%

// lookup inhibition at 1 µM for CN1CCN(c2ccc(-c3ccc4nccc(C(=O)NCC(=O)N5CC(F)(F)C[C@H]5C#N)c4c3)cn2)CC1 [Compound 52]
> 50%

Field request: inhibition at 1 µM | item: COc1ccc(/C=C/c2cnccc2C(=O)NCC(=O)N2CC(F)(F)C[C@H]2C#N)cc1 [Compound 15]
> 50%

====

biological target: recombinant human DPP9 (rhDPP9) (Homo sapiens); construct: purchased R&S system / R&D systems (both sic) 5419-SE; test: DPP9 enzymatic activity assay, 40 ng rhDPP9, HEPES buffer; format: biochemical; conditions: Table 3A
measured_attribute: IC50

Sample answers from the record:
C/C(=C\c1cnccc1C(=O)NCC(=O)N1CC(F)(F)C[C@H]1C#N)c1ccc(F)cc1
1 to 10 µM
N#C[C@@H]1CC(F)(F)CN1C(=O)CNC(=O)c1ccncc1Cc1ccc(F)cc1
1 to 10 µM
N#C[C@@H]1CC(F)(F)CN1C(=O)CNC(=O)c1ccncc1NC(=O)COc1ccc(Cl)c(F)c1
1 to 10 µM

Consider the compound C=C(Cc1cnccc1C(=O)NCC(=O)N1CC(F)(F)C[C@H]1C#N)c1ccc(F)cc1 and give its measured IC50.
1 to 10 µM

Return reported IC50; argument: N#C[C@@H]1CC(F)(F)CN1C(=O)CNC(=O)c1ccncc1/C=C/c1ccc(Cl)cc1
< 1 µM

Suppose we examine the compound N#C[C@@H]1CC(F)(F)CN1C(=O)CNC(=O)c1ccncc1CCc1ccc(Cl)cc1 ; what IC50 value has been reported?
1 to 10 µM

May I ask what IC50 has been recorded for N#C[C@@H]1CC(F)(F)CN1C(=O)CNC(=O)c1ccncc1/C=C/c1ccc(F)cc1 ?
1 to 10 µM

Requested read-out: IC50. Entry: N#C[C@@H]1CC(F)(F)CN1C(=O)CNC(=O)c1ccncc1CCc1ccc(F)cc1
1 to 10 µM

====

Recorded measurements of pIC50, one per entry
target: recombinant human DPPIV (rhDPPIV) (Homo sapiens); construct: purchased R&S system (so in the source); test: DPPIV enzymatic activity assay, H-Gly-Pro-pNA; type: biochemical; conditions: Table 3B
Sequence (P27487 whole entry): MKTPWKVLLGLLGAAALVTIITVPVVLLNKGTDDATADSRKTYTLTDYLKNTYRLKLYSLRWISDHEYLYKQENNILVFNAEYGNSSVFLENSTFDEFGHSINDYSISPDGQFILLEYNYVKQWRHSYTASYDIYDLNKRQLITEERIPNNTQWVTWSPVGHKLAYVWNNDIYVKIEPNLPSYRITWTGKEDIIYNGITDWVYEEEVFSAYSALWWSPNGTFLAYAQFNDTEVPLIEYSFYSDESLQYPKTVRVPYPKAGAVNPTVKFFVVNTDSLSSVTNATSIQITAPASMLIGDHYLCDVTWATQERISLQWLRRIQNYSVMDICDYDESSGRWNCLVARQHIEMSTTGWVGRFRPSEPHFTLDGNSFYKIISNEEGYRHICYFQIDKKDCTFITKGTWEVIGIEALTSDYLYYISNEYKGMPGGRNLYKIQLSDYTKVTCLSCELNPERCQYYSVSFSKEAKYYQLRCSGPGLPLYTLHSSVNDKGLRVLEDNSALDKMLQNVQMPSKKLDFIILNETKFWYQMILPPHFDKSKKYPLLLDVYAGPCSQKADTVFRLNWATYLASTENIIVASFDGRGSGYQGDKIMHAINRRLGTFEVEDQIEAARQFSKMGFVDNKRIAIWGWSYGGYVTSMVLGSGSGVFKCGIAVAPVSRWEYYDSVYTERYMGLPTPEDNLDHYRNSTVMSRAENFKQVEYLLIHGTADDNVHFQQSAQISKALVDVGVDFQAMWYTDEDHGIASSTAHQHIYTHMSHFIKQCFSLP
pIC50: −log10 of the molar value.

Field: example entries. Status: answers known.
N#C[C@@H]1CC(F)(F)CN1C(=O)CNC(=O)c1ccncc1CCc1ccc(Cl)cc1
5.00 to 6.00
N#C[C@@H]1CC(F)(F)CN1C(=O)CNC(=O)c1ccncc1/C=C/c1ccc(OC(F)(F)F)cc1
< 5.00
N#C[C@@H]1CC(F)(F)CN1C(=O)CNC(=O)c1ccnc2ccc(/C=C/c3ccc(O)nc3)cc12
< 5.00
COc1ccc(/C=C/c2ccc3nccc(C(=O)NCC(=O)N4CC(F)(F)C[C@H]4C#N)c3c2)cc1
< 5.00
C/C(=C\c1cnccc1C(=O)NCC(=O)N1CC(F)(F)C[C@H]1C#N)c1ccc(C(F)(F)F)cc1
< 5.00

Bench note: what pIC50 did C/C(=C\c1cnccc1C(=O)NCC(=O)N1CC(F)(F)C[C@H]1C#N)c1ccc(OC(F)(F)F)cc1 show?
< 5.00

Consider the compound shown here: COc1ccc(/C(C)=C/c2cnccc2C(=O)NCC(=O)N2CC(F)(F)C[C@H]2C#N)cc1 What is its recorded pIC50?
< 5.00

Could you tell me which pIC50 is on file for C[C@H](Nc1cnccc1C(=O)NCC(=O)N1CC(F)(F)C[C@H]1C#N)c1ccc(F)cc1 ?
< 5.00

Looking for the measured pIC50 of C/C(=C\c1ccc2nccc(C(=O)NCC(=O)N3CC(F)(F)C[C@H]3C#N)c2c1)c1ccc(Cl)cc1 , can you help?
< 5.00

Fill in the blank: the reported pIC50 of N#C[C@@H]1CC(F)(F)CN1C(=O)CNC(=O)c1ccncc1/C=C/c1ccc(F)cc1 is ____.
5.00 to 6.00

# get_value(readout='pIC50', item= N#C[C@@H]1CC(F)(F)CN1C(=O)CNC(=O)c1ccnc2ccc(-c3ccc(C(F)(F)F)nc3)cc12 )
< 5.00

Requested read-out: pIC50. Entry: CC(Nc1cnccc1C(=O)NCC(=O)N1CC(F)(F)C[C@H]1C#N)c1ccc(F)cc1 (stereo partly drawn)
5.00 to 6.00

====

The reader will find reported IC50 values listed item by item below.
biological target: DPPIV (Mus musculus, UniProt P28843); assay: DPPIV enzymatic activity in mouse plasma (H-Gly-Pro-AMC); settings: H-Gly-Pro-AMC substrate
Sequence (P28843 37-760 limits assumed): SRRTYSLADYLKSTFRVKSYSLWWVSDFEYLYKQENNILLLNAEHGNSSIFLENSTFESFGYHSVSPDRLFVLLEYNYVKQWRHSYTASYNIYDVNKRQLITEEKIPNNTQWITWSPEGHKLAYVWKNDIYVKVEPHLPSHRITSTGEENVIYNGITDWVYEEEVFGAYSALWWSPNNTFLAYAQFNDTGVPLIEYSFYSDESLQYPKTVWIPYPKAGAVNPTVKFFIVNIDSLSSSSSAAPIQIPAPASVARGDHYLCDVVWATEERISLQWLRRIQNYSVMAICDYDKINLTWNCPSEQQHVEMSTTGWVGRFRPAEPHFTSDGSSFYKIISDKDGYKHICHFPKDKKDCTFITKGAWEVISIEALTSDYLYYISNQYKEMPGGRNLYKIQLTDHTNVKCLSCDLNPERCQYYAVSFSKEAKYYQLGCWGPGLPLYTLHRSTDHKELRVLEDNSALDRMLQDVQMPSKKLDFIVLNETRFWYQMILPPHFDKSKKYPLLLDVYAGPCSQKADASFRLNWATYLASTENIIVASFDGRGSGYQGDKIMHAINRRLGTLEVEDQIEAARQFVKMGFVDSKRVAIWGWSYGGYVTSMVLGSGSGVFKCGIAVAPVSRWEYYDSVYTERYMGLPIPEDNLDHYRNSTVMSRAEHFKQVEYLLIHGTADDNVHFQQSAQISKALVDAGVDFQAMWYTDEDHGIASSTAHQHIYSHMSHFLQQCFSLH

COc1ccc(C(=O)Nc2cnccc2C(=O)NCC(=O)N2CC(F)(F)C[C@H]2C#N)cc1
1 to 10 µM
N#C[C@@H]1CC(F)(F)CN1C(=O)CNC(=O)c1ccncc1Cc1ccccc1F
< 10 µM
N#C[C@@H]1CC(F)(F)CN1C(=O)CNC(=O)c1ccncc1Cc1ccc(F)cc1
< 10 µM
N#C[C@@H]1CC(F)(F)CN1C(=O)CNC(=O)c1ccncc1NC(=O)COc1ccc(Cl)c(F)c1
< 1 µM
N#CC1CC(F)(F)CN1C(=O)CNC(=O)c1ccnc2ccccc12 (stereo not shown) [Ref. Comp., reference compound]
< 10 µM

Form: Entry = N#C[C@@H]1CC(F)(F)CN1C(=O)CNC(=O)c1ccncc1NCc1ccc(F)cc1 | System = DPPIV (Mus musculus, UniProt P28843) | IC50 = ____
< 10 µM

Which IC50 is reported with DPPIV (Mus musculus, UniProt P28843) for this entry: N#C[C@@H]1CC(F)(F)CN1C(=O)CNC(=O)c1ccncc1/C=C/c1ccc(Cl)cc1 ?
< 10 µM
